Source: patent US20260297042A1

Would you mind telling me the reported pIC50 of each entry?
ASSAY SYSTEM: WEE1 (Homo sapiens, UniProt P30291)
Construct: purchased Thermo Fisher PR7373A
Sequence (P30291 whole entry): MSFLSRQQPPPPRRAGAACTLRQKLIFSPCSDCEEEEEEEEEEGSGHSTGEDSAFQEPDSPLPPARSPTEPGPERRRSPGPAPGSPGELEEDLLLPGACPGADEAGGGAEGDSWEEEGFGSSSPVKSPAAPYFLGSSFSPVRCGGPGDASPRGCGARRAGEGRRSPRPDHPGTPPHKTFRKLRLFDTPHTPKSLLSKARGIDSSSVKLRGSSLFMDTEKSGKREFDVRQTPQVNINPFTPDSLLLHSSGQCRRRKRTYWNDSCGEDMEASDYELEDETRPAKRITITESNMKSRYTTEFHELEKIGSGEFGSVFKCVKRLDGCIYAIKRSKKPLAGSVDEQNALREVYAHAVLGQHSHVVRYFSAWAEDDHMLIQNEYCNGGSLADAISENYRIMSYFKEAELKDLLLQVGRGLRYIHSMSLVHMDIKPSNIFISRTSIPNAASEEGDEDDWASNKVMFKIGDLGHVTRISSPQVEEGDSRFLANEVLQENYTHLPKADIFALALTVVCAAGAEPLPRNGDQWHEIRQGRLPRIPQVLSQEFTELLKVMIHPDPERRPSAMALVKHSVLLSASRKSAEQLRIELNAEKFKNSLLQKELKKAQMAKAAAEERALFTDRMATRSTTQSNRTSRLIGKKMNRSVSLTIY
PROTOCOL NOTES: Selectivity versus WEE1 assay (ADP-Glo enzymatic assay)
Format: biochemical
CONDITION CONTEXT: WEE1 15 nM; ADP-Glo; banded values
Description: Selectivity versus WEE1 assay: Selectivity was established using the same format as outlined for PKMYT1. […] After 60 minutes the luminescence signal was read on a PHERAStar FS microplate reader (BMG Labtech). Data analysis: Data was captured and analysed within the Dotmatics Studies software module where dose response curves were generated and IC50 values determined. […]
pIC50: −log10 of the molar value. Counter-ions that a name gives are not always drawn.

For reference, reported pIC50 for Cc1cn(-c2ncc(C(=O)Nc3c(C)ccc(O)c3C)s2)nc1Nc1ncc(C(=O)Nc2c(C)ccc(O)c2C)s1 [BAA-393] stands at < 4.96

For reference, reported pIC50 for Cc1cn(C)nc1Nc1nnc(C(=O)Nc2c(C)ccc(O)c2C)s1 [BAA-465] stands at < 4.96

For reference, reported pIC50 for COCC(C(=O)N1CCCC1)n1cc(C)c(Nc2ncc(C(=O)Nc3c(C)ccc(O)c3C)s2)n1 (stereo not drawn) [BAA-577] stands at < 4.96

For reference, reported pIC50 for CCN(CCO)C(=O)Cn1cc(C)c(Nc2ncc(C(=O)Nc3c(C)ccc(O)c3C)s2)n1 [BAA-535] stands at 4.96 to 6.00

For reference, reported pIC50 for Cc1ccc(O)c(C)c1NC(=O)c1cnc(Nc2cccc(N3CCN(CCO)CC3)n2)s1 [BAA-432] stands at 4.96 to 6.00

For reference, reported pIC50 for CCc1cn(CC(F)F)nc1Nc1ncc(C(=O)Nc2c(C)ccc(O)c2C)s1 [BAA-589] stands at 4.96 to 6.00

For reference, reported pIC50 for Cc1ccc(O)c(C)c1NC(=O)c1cnc(Nc2cc(N3CCN(C)CC3)ncn2)s1 [BAA-581] stands at 6.00 to 7.30

For reference, reported pIC50 for CCc1c(O)ccc(C)c1NC(=O)c1cnc(Nc2ccn(C)n2)s1 [BAA-469] stands at < 4.96

For reference, reported pIC50 for Cc1ccc(O)c(C)c1NC(=O)c1cnc(Nc2nn(CC#N)cc2Br)s1 [BAA-586] stands at 6.00 to 7.30

For reference, reported pIC50 for Cc1ccc(O)c(C)c1NC(=O)c1cnc(Nc2cccc3ncsc23)s1 [BAA-485] stands at < 4.96

For reference, reported pIC50 for Cn1cc(Br)c(Nc2ncc(C(=O)Nc3c(Cl)ccc(O)c3F)s2)n1 [BAA-471] stands at < 4.96

For reference, reported pIC50 for Cc1ccc(O)c(C)c1NC(=O)c1cnc(Nc2ccc3ccncc3n2)s1 [BAA-597] stands at < 4.96

For reference, reported pIC50 for Cc1ccc(O)c(C)c1NC(=O)c1cnc(Nc2nccc3cccnc23)s1 [BAA-604] stands at < 4.96

For reference, reported pIC50 for Cc1ccc(O)c(C)c1NC(=O)c1cnc(Nc2nn(CCF)cc2Cl)s1 [BAA-582] stands at 4.96 to 6.00

For reference, reported pIC50 for Cc1ccc(O)c(C)c1NC(=O)c1cnc(Nc2ccncn2)s1 [BAA-435] stands at < 4.96

For reference, reported pIC50 for COCCN(C)C(=O)Cn1cc(C)c(Nc2ncc(C(=O)Nc3c(C)ccc(O)c3C)s2)n1 [BAA-549] stands at < 4.96

For reference, reported pIC50 for Cc1cccc(Nc2ncc(C(=O)Nc3c(C)ccc(O)c3C)s2)n1 [BAA-407] stands at 4.96 to 6.00

For reference, reported pIC50 for Cc1ccc(O)c(C)c1NC(=O)c1cnc(Nc2nn(CC(F)F)cc2Br)s1 [BAA-587] stands at 4.96 to 6.00

For reference, reported pIC50 for COCCN(CCOC)C(=O)Cn1cc(C)c(Nc2ncc(C(=O)Nc3c(C)ccc(O)c3C)s2)n1 [BAA-542] stands at < 4.96

For reference, reported pIC50 for CCN(CC)C(=O)Cn1cc(Cl)c(Nc2ncc(C(=O)Nc3c(C)ccc(O)c3C)s2)n1 [BAA-560] stands at 4.96 to 6.00

For reference, reported pIC50 for Cc1ccc(O)c(C)c1NC(=O)c1cnc(Nc2cccc(C3CC3)n2)s1 [BAA-409] stands at 4.96 to 6.00

For reference, reported pIC50 for Cc1ccc(O)c(C)c1NC(=O)c1cnc(Nc2n[nH]cc2Br)s1 [BAA-579] stands at 4.96 to 6.00

For reference, reported pIC50 for Cc1ccc(O)c(C)c1NC(=O)c1cnc(Nc2ncc(C(C)(C)C)o2)s1 [BAA-449] stands at < 4.96

For reference, reported pIC50 for COCC1(N(C)C(=O)Cn2cc(C)c(Nc3ncc(C(=O)Nc4c(C)ccc(O)c4C)s3)n2)CC1 [BAA-607] stands at 4.96 to 6.00

For reference, reported pIC50 for Cc1ccc(O)c(C)c1NC(=O)c1cnc(Nc2cc(N3CCOCC3)ncn2)s1 [BAA-571] stands at 6.00 to 7.30

For reference, reported pIC50 for Cc1ccc(O)c(C)c1NC(=O)c1cnc(Nc2nn(C)c3cccc(F)c23)s1 [BAA-444] stands at < 4.96

For reference, reported pIC50 for Cc1cn(C(C)C(=O)N2CCCC2)nc1Nc1ncc(C(=O)Nc2c(C)ccc(O)c2C)s1 (stereo not drawn) [BAA-488] stands at 4.96 to 6.00

For reference, reported pIC50 for Cc1ccc(O)c(C)c1NC(=O)c1cnc(Nc2ncnc3sccc23)s1 [BAA-447] stands at 4.96 to 6.00

For reference, reported pIC50 for Cc1cccnc1Nc1ncc(C(=O)Nc2c(C)ccc(O)c2C)s1 [BAA-415] stands at < 4.96

For reference, reported pIC50 for Cc1ccc(O)c(C)c1NC(=O)c1cnc(Nc2nccc3ncccc23)s1 [BAA-603] stands at < 4.96

For reference, reported pIC50 for Cc1cn(CC#N)nc1Nc1ncc(C(=O)Nc2c(C)ccc(O)c2Br)s1 [BAA-584] stands at 6.00 to 7.30

For reference, reported pIC50 for Cc1ccc(O)c(C)c1NC(=O)c1cnc(Nc2cnn(CC(=O)N3CCCC3)c2C)s1 [BAA-556] stands at < 4.96

For reference, reported pIC50 for Cc1nc(Cl)cc(Nc2ncc(C(=O)Nc3c(C)ccc(O)c3C)s2)n1 [BAA-436] stands at < 4.96

For reference, reported pIC50 for Cc1ccc(O)c(C)c1NC(=O)c1cnc(Nc2cccc3c2OCCO3)s1 [BAA-529, TFA salt] stands at < 4.96

For reference, reported pIC50 for Cc1ccc(O)c(C)c1NC(=O)c1cnc(Nc2n[nH]cc2F)s1 [BAA-593] stands at 4.96 to 6.00

For reference, reported pIC50 for CCCn1nc(Nc2ncc(C(=O)Nc3c(C)ccc(O)c3C)s2)c2ccccc21 [BAA-460] stands at 4.96 to 6.00
